B1: NETO1 (parent)
chain: GFSPIIGRFCGQQNPPVIKSSGRF

Variants of: B1
MEASUREMENT DESCRIPTION: protein stability index of a GFP-peptide fusion (GPS, HEK-293T) (PSI 1-6); higher = more stable;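 further: lentivirally expressed fusions sorted by FACS into six bins by GFP to DsRed ratio, PSI derived from sequencing read proportions per bin multiplied by bin number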
ASSAY SETUP: c terminus: a fixed tail appended
Where protein stability index equals or exceeds 2, the correct label is criterion met; where it does not, the label is criterion not met.

[[record]]
mutation_annotation = "R23W"
discrete_label = "criterion met"

[[record]]
mutation_annotation = "I6T"
discrete_label = "criterion met"

[[record]]
mutation_annotation = "Q13G"
discrete_label = "criterion not met"

[[record]]
mutation_annotation = "S20L"
discrete_label = "criterion met"

[[record]]
mutation_annotation = "Q12I"
discrete_label = "criterion met"

[[record]]
mutation_annotation = "R23F"
discrete_label = "criterion not met"

[[record]]
mutation_annotation = "G7L"
discrete_label = "criterion not met"

[[record]]
mutation_annotation = "P4A"
discrete_label = "criterion met"

[[record]]
mutation_annotation = "N14T"
discrete_label = "criterion not met"

[[record]]
mutation_annotation = "C10H"
discrete_label = "criterion met"

[[record]]
mutation_annotation = "G11T"
discrete_label = "criterion met"

